- Test system: Bacillus subtilis 168
- PROTOCOL_NOTES: MIC micro-dilution
- Format: cell-based
- CONDITION_CONTEXT: Bacillus subtilis, 168
# MIC listing for each entry below

SMILES_RECORD	TARGET_ENTITY	UNIT_SPEC	MIC
CCCCCCCCCOc1ccc2[nH]cc(CC[N+](C)(C)C)c2c1	Bacillus subtilis 168	µg/mL	52
CCCCCCCCCOc1cccc(CCN)c1	Bacillus subtilis 168	µg/mL	0.66
CCCCCCCCCOc1ccc(CCN)cc1	Bacillus subtilis 168	µg/mL	0.66
CCCCCCCCCOc1ccc2[nH]cc(CCN)c2c1	Bacillus subtilis 168	µg/mL	0.76

###

- Tested on: Salmonella typhimurium
- PROTOCOL_NOTES: MIC micro-dilution
- Type: cell-based
- CONDITION_CONTEXT: Salmonella enterica, TYPHIMURIUM
REPORTED_METRIC: MIC (µg/mL)

SMILES_RECORD	REPORTED_METRIC	UNIT_SPEC	BOUND_OPERATOR	EXPERIMENTAL_RESULT
CCCCCCCCCOc1ccc2[nH]cc(CC[N+](C)(C)C)c2c1	MIC	µg/mL	=	26
CCCCCCCCCCCCCCCOc1ccc2[nH]cc(CCN)c2c1	MIC	µg/mL	>	124
CCCCCCCCCOc1cccc(CCN)c1	MIC	µg/mL	=	5.3
CCCCCCCCCOc1ccc2[nH]cc(CCN)c2c1	MIC	µg/mL	=	6
CCCCCCOc1ccc2[nH]cc(CCN)c2c1	MIC	µg/mL	=	42
CCCCOc1ccc2[nH]cc(CCN)c2c1	MIC	µg/mL	>	74

###

# MIC listing for each entry below
- System: E. coli BW25113
- PROTOCOL_NOTES: MIC micro-dilution
- Format: cell-based
- CONDITION_CONTEXT: Escherichia coli; E. coli BW25113; LB media, 37° C., 16-18 hours; read-out: MIC
- Experimental: Luria-Bertani (LB) media (10 g/L tryptone, 10 g/L NaCl, 5 g/L yeast extract, pH 7.0) was used to grow all bacterial strains, except Streptococcus pyogenes. Streptococcus pyogenes was grown in Mueller-Hinton broth containing 5% (v/v) sheep blood. All bacterial cultures were grown at 37° C. All the E. coli strains were grown while shaking at 200 rpm, while clinical pathogens were incubated without shaking. […]
REPORTED_METRIC: MIC (µg/mL)

COMPOUND	TARGET_ENTITY	REPORTED_METRIC	BOUND_OPERATOR	EXPERIMENTAL_RESULT
CCCCCCCCCOc1cccc(N)c1	E. coli BW25113	MIC	>	40
CCCCCCCCCCOc1ccc2[nH]cc(CCN)c2c1	E. coli BW25113	MIC	=	6.3
CCCCCCCCCOc1ccc2[nH]cc(CCNC(=O)OC(C)C)c2c1	E. coli BW25113	MIC	>	130
CCCCCCCCCOc1cccc(CN)c1	E. coli BW25113	MIC	=	9.4
CC(C)CCCC(C)CCOc1ccc2[nH]cc(CCN)c2c1 (stereo not shown)	E. coli BW25113	MIC	=	13
NCCc1c[nH]c2ccc(OCCCCCCCc3ccccc3)cc12	E. coli BW25113	MIC	=	14
CCCCCCCCCOc1ccc2[nH]ccc2c1	E. coli BW25113	MIC	>	83

###

- Tested on: Acinetobacter baumannii
- PROTOCOL_NOTES: MIC micro-dilution
- Type: cell-based

SMILES_RECORD	TARGET_ENTITY	BOUND_OPERATOR	MIC [µg/mL]
CCCCOc1ccc2[nH]cc(CCN)c2c1	Acinetobacter baumannii	>	74
CCCCCCCCCOc1cccc(CCN)c1	Acinetobacter baumannii	=	5.3
CCCCCCCCCCCCCCCOc1ccc2[nH]cc(CCN)c2c1	Acinetobacter baumannii	>	124
CCCCCCOc1ccc2[nH]cc(CCN)c2c1	Acinetobacter baumannii	=	42
CCCCCCCCCOc1ccc2[nH]cc(CC[N+](C)(C)C)c2c1	Acinetobacter baumannii	=	52
CCCCCCCCCOc1ccc2[nH]cc(CCN)c2c1	Acinetobacter baumannii	=	6

###

- Tested on: Klebsiella pneumoniae
- PROTOCOL_NOTES: MIC micro-dilution
- Format: cell-based
- CONDITION_CONTEXT: LB media, 37° C., 16-18 hours, read-out: MIC
# MIC listing for each entry below

COMPOUND	TARGET_ENTITY	MIC
CC(C)CCCC(C)CCOc1ccc2[nH]cc(CCN)c2c1 (centres unmarked)	Klebsiella pneumoniae	13 µg/mL
CCCCCCCCCCOc1ccc2[nH]cc(CCN)c2c1	Klebsiella pneumoniae	6.3 µg/mL
CCCCCCCCCOc1ccc2[nH]cc(CCNC(=O)OC(C)C)c2c1	Klebsiella pneumoniae	> 130 µg/mL
CCCCCCCCCOc1ccc2[nH]ccc2c1	Klebsiella pneumoniae	> 83 µg/mL
NCCc1c[nH]c2ccc(OCCCCCCCc3ccccc3)cc12	Klebsiella pneumoniae	7 µg/mL

###

# MIC listing for each entry below
- Tested on: Bacillus subtilis 168
- PROTOCOL_NOTES: MIC micro-dilution
- Format: cell-based
- CONDITION_CONTEXT: Bacillus subtilis 168; LB media, 37° C., 16-18 hours; read-out: MIC

SMILES_RECORD	TARGET_ENTITY	BOUND_OPERATOR	MIC, µg/mL
CCCCCCCCCOc1ccc2[nH]ccc2c1	Bacillus subtilis 168	>	83
CCCCCCCCCOc1ccc2[nH]cc(CCNC(=O)OC(C)C)c2c1	Bacillus subtilis 168	>	130
CCCCCCCCCOc1cccc(CN)c1	Bacillus subtilis 168	=	4.7
CCCCCCCCCOc1cccc(N)c1	Bacillus subtilis 168	=	40

###

- Test system: Staphylococcus aureus
- PROTOCOL_NOTES: MIC micro-dilution
- Format: cell-based

SMILES_RECORD	BOUND_OPERATOR	MIC, µg/mL
CCCCCCCCCOc1ccc2[nH]cc(CCN)c2c1	=	3
CCCCCCCCCOc1cccc(CCN)c1	=	5.3
CCCCCCCCCCCCCCCOc1ccc2[nH]cc(CCN)c2c1	>	124
CCCCCCOc1ccc2[nH]cc(CCN)c2c1	=	42
CCCCCCCCCOc1ccc2[nH]cc(CC[N+](C)(C)C)c2c1	=	6.5
CCCCOc1ccc2[nH]cc(CCN)c2c1	>	74

###

# MIC listing for each entry below
- Tested on: E. coli BW25113
- PROTOCOL_NOTES: MIC micro-dilution
- Type: cell-based
- CONDITION_CONTEXT: Escherichia coli, BW25113, E. coli BW25113; LB media, 37° C., 16-18 hours

SMILES_RECORD	MIC
NCCc1c[nH]c2ccc(O)cc12	> 51 µg/mL
CCCCOc1ccc2[nH]cc(CCN)c2c1	> 74 µg/mL
CCCCCCOc1ccc2[nH]cc(CCN)c2c1	42 µg/mL
CCCCCCCCCOc1ccc2[nH]cc(CC[N+](C)(C)C)c2c1	52 µg/mL
CCCCCCCCCOc1cccc(CCN)c1	5.3 µg/mL
CCCCCCCCCOc1ccc(CCN)cc1	5.3 µg/mL
COc1ccc2[nH]cc(CCN)c2c1	> 56 µg/mL
CCCCCCCCCCCCCCCOc1ccc2[nH]cc(CCN)c2c1	> 124 µg/mL
COc1ccc2c(CCN)c[nH]c2c1	> 61 µg/mL
Cc1[nH]c2ccc(O)cc2c1CCN	> 61 µg/mL
NCCc1c[nH]c2ccccc12	> 61 µg/mL
